Exercise: state measured viability, T/C for each of the molecules provided.
# Test system: 276233-004-R-J1-PDC KRAS spheroids with HUVEC/MSC, viability
# Procedure Text: Anticancer human tumor 276233-004-R-J1-PDC patient-derived colon adenocarcinoma cell line growth inhibition [KRAS2]
# Run Conditions: second compound 3.16 µM; first compound 0.1 µM; stronger effect = lower value
Give bare numbers, in %.

Below: 3 molecules and their reported viability, T/C.
>>> endpoint_result("COC(=O)c1ccc2c(C(=Nc3ccc(N(C)C(=O)CN4CCN(C)CC4)cc3)c3ccccc3)c(O)[nH]c2c1 + C=CC(=O)N1CCN(c2nc(=O)n(-c3c(C)ccnc3C(C)C)c3nc(-c4c(O)cccc4F)c(F)cc23)C(C)C1")
78.1
>>> endpoint_result("O=C(c1cc(Cc2n[nH]c(=O)c3ccccc23)ccc1F)N1CCN(C(=O)C2CC2)CC1 + CNCc1ccccc1-c1csc(C(C)Nc2nc(C)nc3cc(OC)c(OC)cc23)c1")
1.28
>>> endpoint_result("COc1cc(Nc2ncc3c(n2)-c2ccc(Cl)cc2C(c2c(F)cccc2OC)=NC3)ccc1C(=O)O + C=CC(=O)N1CCN(c2nc(=O)n(-c3c(C)ccnc3C(C)C)c3nc(-c4c(O)cccc4F)c(F)cc23)C(C)C1")
125

Now for the molecule whose viability, T/C we want.
## Task Fill in viability, T/C for record CN(C)C/C=C/C(=O)Nc1cc2c(Nc3ccc(F)c(Cl)c3)ncnc2cc1O[C@H]1CCOC1 + C=CC(=O)N1CCN(c2nc(OCC3CCCN3C)nc3c2CCN(c2cccc4cccc(C)c24)C3)CC1CC#N
## Result 47.7

====

# Test system: 276233-004-R-J1-PDC KRAS spheroids with HUVEC/MSC, viability
# Procedure Text: Anticancer human tumor 276233-004-R-J1-PDC cell line growth inhibition [KRAS2];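 further: cells exposed to agents for seven days before viability read; 100% = DMSO vehicle control wells and lower values mean fewer viable cells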
# Run Conditions: second compound 0.1 µM; first compound 0.1 µM; stronger effect = lower value
Kindly supply the reported viability, T/C values for the records listed here.
Answers are plain numbers, in %.

Record excerpt, results attached:
>>> endpoint_result("CC(=O)OC12COC1CC(O)C1(C)C(=O)C(O)C3=C(C)C(OC(=O)C(O)C(NC(=O)OC(C)(C)C)c4ccccc4)CC(O)(C(OC(=O)c4ccccc4)C21)C3(C)C (configuration not stated) + CNCc1ccccc1-c1csc(C(C)Nc2nc(C)nc3cc(OC)c(OC)cc23)c1")
83.4
>>> endpoint_result("CC(C)NCC(C(=O)N1CCN(c2ncnc3c2C(C)CC3O)CC1)c1ccc(Cl)cc1 (configuration not stated) + C=CC(=O)N1CCN(c2nc(OCC3CCCN3C)nc3c2CCN(c2cccc4cccc(C)c24)C3)CC1CC#N")
81.7
>>> endpoint_result("COC(=O)c1ccc2c(C(=Nc3ccc(N(C)C(=O)CN4CCN(C)CC4)cc3)c3ccccc3)c(O)[nH]c2c1 + CC1OCC2(CCN(c3cnc(Sc4ccnc(N)c4Cl)c(N)n3)CC2)C1N")
73.7
>>> endpoint_result("CCN1CCN(Cc2ccc(Nc3ncc(F)c(-c4cc(F)c5nc(C)n(C(C)C)c5c4)n3)nc2)CC1 + C=CC(=O)N1CCN(c2nc(=O)n(-c3c(C)ccnc3C(C)C)c3nc(-c4c(O)cccc4F)c(F)cc23)C(C)C1")
98.2

Return reported viability, T/C values for all items listed beneath this line.
1. CC(C)NCC(C(=O)N1CCN(c2ncnc3c2C(C)CC3O)CC1)c1ccc(Cl)cc1 (configuration not stated) + CC1OCC2(CCN(c3cnc(Sc4ccnc(N)c4Cl)c(N)n3)CC2)C1N
2. CCNC(=O)CC1N=C(c2ccc(Cl)cc2)c2cc(OC)ccc2-n2c(C)nnc21 (configuration not stated) + CNCc1ccccc1-c1csc(C(C)Nc2nc(C)nc3cc(OC)c(OC)cc23)c1
3. CC(C)n1nc(-c2ccc3oc(N)nc3c2)c2c(N)ncnc21 + COc1cc2nc(C)nc(NC(C)c3cc(N)cc(C(F)(F)F)c3)c2cc1OC1CCOC1

## Result
75.2
84.3
50.8
